molecular target: Androgen receptor (Homo sapiens); test: qHTS assay to identify small molecule agonists of the androgen receptor (AR) signaling pathway using the MDA cell line (AID 743040; note: nearly all actives have a fitted effect of over 20% in size); settings: MDA-kb2 AR-luc cells, MMTV luciferase, 16 h; series mostly up to 70.3 µM
The source made the active and inactive calls. Calls come from the whole dose curve; as a rule, active = well fitted activation curve with a large enough effect in the repeat runs; inconclusive = weak or mixed curves; inactive = flat fitted curve, though single readings scatter.
Please state which outcome applies, choosing from active, inactive

Worked examples follow.
1) CCC(=O)Oc1ccc2c(c1)CC[C@@H]1[C@@H]2CC[C@]2(C)[C@@H](OC(=O)CC)CC[C@@H]12: active
2) N#Cc1ccc2c(c1)N(CCCN1CCC(O)CC1)c1ccccc1S2: inactive
3) CCCCCc1ccc(C)cc1O: inactive
4) N[C@@H](C(=O)N[C@@H]1C(=O)N2C(C(=O)O)=C(CSc3cn[nH]n3)CS[C@H]12)c1ccc(O)cc1: inactive
5) Nc1ccn(C[C@@H](CO)OCP(=O)(O)O)c(=O)n1: inactive

Query: Can you look up the reported call for O=C(NOC[C@H](O)CO)c1ccc(F)c(F)c1Nc1ccc(I)cc1F for me?
Reply: inactive

Query: Record lookup: outcome of this test for CCC(=O)O[C@H]1CC[C@H]2[C@@H]3CCc4cc(O)ccc4[C@H]3CC[C@]12C ?
Reply: active

Query: # fetch the recorded call for CC(CN1c2ccccc2Sc2ccc(S(=O)(=O)N(C)C)cc21)N(C)C (stereo unspecified) here
Reply: inactive

Query: Which result was noted for this molecule in the test: CCOc1ccc(N=Nc2ccc(N)cc2N)cc1
Reply: active

Query: Per the assay record, what outcome was assigned to CC(=O)[C@@]1(O)CC[C@H]2[C@@H]3C=C(Cl)C4=CC(=O)CC[C@]4(C)[C@H]3CC[C@@]21C ?
Reply: active

Query: recorded result category for [O]=[Bi][O][Bi]=[O] in this test
Reply: inactive

----------
assay: qHTS assay to test for compound auto fluorescence at 535 nm (green) in HepG2 cell free culture (AID 720686); settings: Cell-free medium, green autofluorescence 485/535 nm; series mostly up to 46 µM
Calls of active or inactive are those of the source. Calls follow the shape of the dose curve; as a rule, active = well fitted curve in the direction sought with a large enough effect in the repeat runs; inconclusive = weak or mixed curves; inactive = flat fitted curve, though single readings scatter.
measured endpoint: outcome

1. CCNC(=O)[C@@H]1CCCN1C(=O)[C@H](CCCN=C(N)N)NC(=O)[C@H](CC(C)C)NC(=O)[C@@H](CC(C)C)NC(=O)[C@H](Cc1ccc(O)cc1)NC(=O)[C@H](CO)NC(=O)[C@H](Cc1c[nH]c2ccccc12)NC(=O)[C@H](Cc1cnc[nH]1)NC(=O)[C@@H]1CCC(=O)N1: inactive
2. FCOC(C(F)(F)F)C(F)(F)F: inactive
3. Nc1ncnc2c1ncn2[C@@H]1O[C@H](COP(=O)(O)OP(=O)(O)OP(=O)(O)O)[C@@H](O)[C@H]1O: inactive
4. CCOC(=O)Nc1ccc2c(c1)N(C(=O)CN(C)C)c1ccccc1CC2: inactive

Items follow; give outcome for each.
1. CC1C(=O)CC2C3(C)CCC2(C(C)C(=O)O)C(=O)C13 (centres undefined)
2. Nc1ncnc2c1ncn2CCOCP(=O)(O)O
3. FC(F)(F)C(F)(F)C(F)(F)C(F)(F)C(F)(F)C(F)(F)F

Reply:
1. inactive
2. inactive
3. inactive

Value sought for every listed molecule: outcome.
1. CN1CCC(OC(=O)C(Oc2ccc(Cl)cc2)Oc2ccc(Cl)cc2)CC1
2. CCCCCCCCCCCCCCCC(=O)OCC(COC(=O)CCCCCCCCCCCCCCC)OC(=O)CCCCCCCCCCCCCCC

Reply:
1. inactive
2. inactive

----------
biological target: Aromatase (Homo sapiens); experiment: qHTS assay to identify aromatase inhibitors (AID 743083); conditions: MCF-7 aro ERE, testosterone-driven ERE luciferase, 24 h; series mostly up to 70.3 µM; note: nearly all actives have a fitted effect of over 55% in size
Inconclusive results are not listed. Active and inactive are the calls of the source. Calls follow the shape of the dose curve; as a rule, active = well fitted inhibition curve with a large enough effect in the repeat runs; inconclusive = weak or mixed curves; inactive = no such curve, though single readings can be large or run the other way.
A correct response names exactly one class from true = active, false = inactive

Check out these entries, answers already filled in.
1) O=c1oc2cc(O)ccc2s1: false
2) OCCO[C@@H]1[C@@H](O)[C@H](O)[C@@H](CO)O[C@@H]1O: false
3) CCCCCCCCCCCC(=O)OC[C@@H](O)C1OC[C@H](O)[C@H]1O (stereo not given in full): false

Query: Hello, I am checking results. What call was entered for CNc1cc(OC)c(C(=O)N[C@H]2CCN(Cc3ccccc3)[C@H]2C)cc1Cl ?
Reply: false

Query: Would you mind telling me which call this test gave Cc1ccccc1OCC(O)CNCCOc1ccc(C(N)=O)cc1 (stereo not given) ?
Reply: false

Query: Tell me the assay call for COC(=O)CC[C@H](N)C(=O)O please.
Reply: false

Query: Short answer needed: outcome of this test for O=C(CCCCCCCCCCCCC1CCCC1)Nc1ccc(S(=O)(=O)c2ccc(NC(=O)CCCCCCCCCCCCC3CCCC3)cc2)cc1 ?
Reply: false

Query: Could you check what this test reported for COc1ccc(C[C@H](N)C(=O)N[C@H]2[C@@H](O)[C@H](n3cnc4c(N(C)C)ncnc43)O[C@@H]2CO)cc1 ?
Reply: true

Query: Dear colleague, could you share the recorded outcome for COC(F)(F)C(Cl)Cl when you have a moment?
Reply: false

Query: Name the outcome recorded for Nc1c(Br)cc(Br)cc1CNC1CCC(O)CC1 (stereo not given) in the assay.
Reply: false

Query: I would be grateful if you could indicate the recorded call for O=C(O)c1cc(N=Nc2ccc(O)c(C(=O)O)c2)ccc1O .
Reply: false

Query: Check the results log: what was the call for CC1CCC(NC(=O)N(CCCl)N=O)CC1 (stereo not given) ?
Reply: false

----------
assay: qHTS assay for identifying genotoxic compounds that show differential cytotoxicity against isogenic chicken DT40 cell lines with known DNA damage response pathways - Rev3 mutant cell line (AID 743014); settings: chicken DT40 Rev3-/- viability, CellTiter-Glo, 40 h; series mostly up to 68.4 µM; note: nearly all actives have a fitted effect of over 55% in size
Records with an inconclusive call do not appear. Calls of active or inactive are those of the source. Calls follow the shape of the dose curve; as a rule, active = well fitted cell-killing curve with a large enough effect in the repeat runs; inconclusive = weak or mixed curves, or effect the other way; inactive = no such curve, though single readings can be large or run the other way.
Please answer using one outcome listed in TRUE for active, FALSE for inactive

Query: Please state the recorded outcome for this compound: CCOC(=O)CN[C@@H](C(=O)N1CC[C@H]1C(=O)NCc1ccc(/C(N)=N/O)cc1)C1CCCCC1
Reply: FALSE

Query: How was CC(C)(C)CC(C)(C)c1cc(Cc2cc(C(C)(C)CC(C)(C)C)cc(-n3nc4ccccc4n3)c2O)c(O)c(-n2nc3ccccc3n2)c1 classified in this test?
Reply: FALSE

Query: Can you look up the reported call for CCC(=O)OCC(=O)[C@@]1(OC(=O)CC)[C@H](C)C[C@H]2[C@H]3[C@H]([C@@H](O)C[C@@]21C)[C@@]1(C)C=CC(=O)C=C1C[C@H]3Cl for me?
Reply: FALSE

Query: Each compound tested received a call. Report the one for O=P(O)(O)C(O)(Cc1cnc2ccccn12)P(=O)(O)O .
Reply: FALSE

Query: Which outcome was assigned to CC(=O)Oc1cccc(C(=O)O)c1OC(C)=O in this test?
Reply: FALSE

Query: Lab log entry: CCC(=O)OCC(=O)[C@@]1(OC(=O)CC)[C@@H](C)C[C@H]2[C@@H]3CCC4=CC(=O)C=C[C@]4(C)[C@@]3(Cl)[C@@H](O)C[C@@]21C — outcome as called in the assay?
Reply: TRUE

Query: Called result for CCCCCCCCCCCCCCCCCC(=O)OCC(C)O (centres undefined)
Reply: FALSE

Query: So what was the verdict on Cc1cccc(Nc2ncccc2C(=O)O)c1C in this test?
Reply: FALSE

Query: Please let me know the test result on file for C=CCNC1=C2C[C@@H](C)C[C@H](OC)[C@H](O)[C@@H](C)/C=C(\C)[C@H](OC(N)=O)[C@@H](OC)/C=C\C=C(/C)C(=O)NC(=CC1=O)C2=O .
Reply: TRUE

Query: Record lookup: outcome of this test for Cn1nnnc1SCC1=C(C(=O)O)N2C(=O)[C@@H](NC(=O)[C@H](O)c3ccccc3)[C@H]2SC1 ?
Reply: FALSE

Query: Per the records of this test, what outcome belongs to C[C@]12CC[C@@H]3c4ccc(O)cc4CC[C@H]3[C@@H]1CC[C@@H]2OP(=O)(O)O ?
Reply: FALSE

----------
experiment: qHTS assay for identifying genotoxic compounds that show differential cytotoxicity against isogenic chicken DT40 cell lines with known DNA damage response pathways - Rad54/Ku70 mutant cell line (AID 743015); conditions: DT40 Rad54/Ku70 mutant viability, CellTiter-Glo, 40 h; series mostly up to 66.8 µM; note: nearly all actives have a fitted effect of over 60% in size
Inconclusive results are not listed. Active and inactive are the calls of the source. The call rests on the fitted dose curve; in most records, active means well fitted cell-killing curve with a large enough effect in the repeat runs; inconclusive means weak or mixed curves; inactive means no such curve, though single readings can be large or run the other way.
Lab note: assign the record to one of 1 (yes) (active), 0 (no) (inactive)

Before answering, review these 3 worked examples.
1. COc1ccc(C2NC(=S)N3C(c4ccc(OC)c(OC)c4)NC(=S)N23)cc1OC (centres undefined): 1 (yes)
2. CO/N=C(\C(=O)N[C@@H]1C(=O)N2C(C(=O)O)=CCS[C@H]12)c1csc(N)n1: 0 (no)
3. CCN(CC)CCC(=O)N1c2ccccc2Sc2ccc(C(F)(F)F)cc21: 1 (yes)

# evaluate next
Query: Hi team, can someone confirm the assay call for CC(C(=O)O)c1ccc(C2CCCCC2)c2ccccc12 (centres undefined) ?
Reply: 0 (no)
